These measurements were taken from patent US20080057044A1.

Test system: Lactobacillus plantarum Strain PL62
Test: Antibiotic resistance (diameter of growth inhibition)
Assay type: cell-based
Excerpt: The stronger antibiotic resistance a probiotic has, the higher survivability within the intestines is. Thus, the stronger an antibiotic resistance is, the better it is. However, if an antibiotic resistance is transferred, resistance problems may be brought about. It was confirmed whether an antibiotic resistance was transferred to other bacteria or not.
property: Diameter (mm) of growth inhibition

**Q:** // returns reported Diameter (mm) of growth inhibition for input "CC(=O)OCC1=C(C(=O)O)N2C(=O)[C@@H](NC(=O)Cc3cccs3)[C@H]2SC1"
**A:** 25 mm

**Q:** What does the data say about its Diameter (mm) of growth inhibition? Entry: "CCN1CCN(C(=O)N[C@@H](C(=O)N[C@@H]2C(=O)N3C(C(=O)O)=C(CSc4nnnn4C)CS[C@H]23)c2ccc(O)cc2)C(=O)C1=O"
**A:** 22 mm

**Q:** Diameter (mm) of growth inhibition lookup needed for "CC[C@H]1OC(=O)[C@H](C)[C@@H](O[C@H]2C[C@@](C)(OC)[C@@H](O)[C@H](C)O2)[C@H](C)[C@@H](O[C@@H]2O[C@H](C)C[C@H](N(C)C)[C@H]2O)[C@](C)(O)C[C@@H](C)C(=O)[C@H](C)[C@@H](O)[C@]1(C)O" , thanks.
**A:** 32 mm

**Q:** # query: Diameter (mm) of growth inhibition of entry "[H]/N=C(/N)N[C@H]1[C@H](O)[C@@H](O)[C@H](O[C@@H]2O[C@@H](C)[C@](O)(C=O)[C@H]2O[C@@H]2O[C@@H](CO)[C@H](O)[C@@H](O)[C@@H]2NC)[C@@H](N/C(N)=N\[H])[C@@H]1O"
**A:** 8 mm

**Q:** I have this compound here, "CCN1CCN(C(=O)N[C@@H](C(=O)N[C@@H]2C(=O)N3[C@@H]2SC(C)(C)[C@@H]3C(=O)O)c2ccccc2)C(=O)C1=O" , and I need its recorded Diameter (mm) of growth inhibition.
**A:** 37 mm

* * *

System: Lactobacillus plantarum Strain PL62
Assay: Antibiotic resistance (diameter of growth inhibition)
Assay type: cell-based
Source text: The stronger antibiotic resistance a probiotic has, the higher survivability within the intestines is. Thus, the stronger an antibiotic resistance is, the better it is. However, if an antibiotic resistance is transferred, resistance problems may be brought about. It was confirmed whether an antibiotic resistance was transferred to other bacteria or not.
Kindly supply the reported Diameter (mm) of growth inhibition values for the records listed here.
# do not omit the unit; it follows the number

**Q:** Entry under review: CN(C)[C@@H]1C(O)=C(C(N)=O)C(=O)[C@@]2(O)C(O)=C3C(=O)c4c(O)cccc4[C@@](C)(O)[C@H]3C[C@@H]12 [Tetracycline] . Reported Diameter (mm) of growth inhibition?
**A:** 24 mm

**Q:** So what's the measured Diameter (mm) of growth inhibition for this one? CN[C@H](CC(C)C)C(=O)N[C@H]1C(=O)N[C@@H](CC(N)=O)C(=O)N[C@H]2C(=O)N[C@H]3C(=O)N[C@H](C(=O)N[C@H](C(=O)O)c4cc(O)cc(O)c4-c4cc3ccc4O)[C@H](O)c3ccc(c(Cl)c3)Oc3cc2cc(c3O[C@@H]2O[C@H](CO)[C@@H](O)[C@H](O)[C@H]2O[C@H]2C[C@](C)(N)[C@H](O)[C@H](C)O2)Oc2ccc(cc2Cl)[C@H]1O [Vancomycin]
**A:** 6 mm

**Q:** What does the data say about its Diameter (mm) of growth inhibition? Entry: CO[C@H]1/C=C/O[C@@]2(C)Oc3c(C)c(O)c4c(O)c(c(/C=N/N5CCN(C)CC5)c(O)c4c3C2=O)NC(=O)/C(C)=C\C=C\[C@H](C)[C@H](O)[C@@H](C)[C@@H](O)[C@@H](C)[C@H](OC(C)=O)[C@@H]1C [Rifampin]
**A:** 24 mm

**Q:** Need Diameter (mm) of growth inhibition, item Cc1onc(-c2ccccc2)c1C(=O)N[C@@H]1C(=O)N2[C@@H]1SC(C)(C)[C@@H]2C(=O)O [Oxacillin]
**A:** 11 mm

**Q:** Query (molecule): CCC[C@@H]1C[C@@H](C(=O)N[C@@H]([C@H]2O[C@H](SC)[C@H](O)[C@@H](O)[C@H]2O)[C@H](C)Cl)N(C)C1 [Clindamycin] ; field requested: Diameter (mm) of growth inhibition
**A:** 20 mm

**Q:** I have this molecule here, CC1(C)S[C@@H]2[C@H](NC(=O)[C@H](N)c3ccccc3)C(=O)N2[C@H]1C(=O)O [Ampicillin] , and I need its recorded Diameter (mm) of growth inhibition.
**A:** 34 mm

**Q:** Recorded Diameter (mm) of growth inhibition for O=C(N[C@H](CO)[C@H](O)c1ccc([N+](=O)[O-])cc1)C(Cl)Cl [Chloramphenicol] , please?
**A:** 30 mm

**Q:** # input molecule: CC1(C)S[C@@H]2[C@H](NC(=O)C(C(=O)O)c3ccccc3)C(=O)N2[C@H]1C(=O)O (some centres unmarked) [Carbenicillin] ; wanted: its Diameter (mm) of growth inhibition
**A:** 29 mm
